target: Butyrylcholinesterase (BuChE) (Rattus norvegicus, UniProt Q9JKC1); assay: Inhibition of BuChE in rat serum at 50 uM using S-butylthiocholine iodide as substrate by Ellman's method relative to control; assay type: cell-free; details: probe S-butylthiocholine iodide
Sequence (Q9JKC1 whole entry): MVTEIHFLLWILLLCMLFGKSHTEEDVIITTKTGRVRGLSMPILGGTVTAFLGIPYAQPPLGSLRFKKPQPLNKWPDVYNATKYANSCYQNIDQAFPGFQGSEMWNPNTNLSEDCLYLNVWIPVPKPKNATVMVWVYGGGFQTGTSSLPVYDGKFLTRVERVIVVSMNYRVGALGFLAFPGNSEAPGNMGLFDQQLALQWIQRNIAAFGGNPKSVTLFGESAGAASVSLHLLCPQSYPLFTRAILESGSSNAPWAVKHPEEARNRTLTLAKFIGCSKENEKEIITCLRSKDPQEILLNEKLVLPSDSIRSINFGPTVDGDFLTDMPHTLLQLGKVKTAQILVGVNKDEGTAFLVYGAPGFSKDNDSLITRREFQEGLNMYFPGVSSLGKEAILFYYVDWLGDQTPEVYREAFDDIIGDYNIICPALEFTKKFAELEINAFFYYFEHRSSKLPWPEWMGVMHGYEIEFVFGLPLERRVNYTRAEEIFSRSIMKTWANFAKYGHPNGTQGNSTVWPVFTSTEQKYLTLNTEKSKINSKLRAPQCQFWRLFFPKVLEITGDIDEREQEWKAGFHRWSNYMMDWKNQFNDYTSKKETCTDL
Returns one of True or False; True when inhibition at 50 µM is >= 10%.

                                   compound  category
0  CCN(CCCCC1OC(=O)c2cc(OC)c(OC)cc21)Cc1ccccc1OC (stereo not given)      True
1  COc1cc2c(cc1OC)C(CCCCN(C)Cc1ccccc1)OC2=O (stereo not given)      True
2  CCN(CCC/C=C1\OC(=O)c2cc(OC)c(OC)cc21)Cc1ccc(N(C)C)cc1      True
3  CCN(CCCCC1OC(=O)c2cc(OC)c(OC)cc21)Cc1ccc(N(C)C)cc1 (stereo not given)     False
4  CCN(CCCCC1OC(=O)c2cc(OC)c(OC)cc21)Cc1ccccc1 (stereo not given)      True

====

Reported inhibition at 10 µM by item:
target: Amine oxidase [flavin-containing] A (Homo sapiens, UniProt P21397); test: Inhibition of recombinant human MAO-A expressed in baculovirus infected BTI insect cells at 10 uM using kynuramine as substrate measured after 30 mins by fluorescence based assay relative to control; conditions: 0.5 h
Sequence (P21397 whole entry): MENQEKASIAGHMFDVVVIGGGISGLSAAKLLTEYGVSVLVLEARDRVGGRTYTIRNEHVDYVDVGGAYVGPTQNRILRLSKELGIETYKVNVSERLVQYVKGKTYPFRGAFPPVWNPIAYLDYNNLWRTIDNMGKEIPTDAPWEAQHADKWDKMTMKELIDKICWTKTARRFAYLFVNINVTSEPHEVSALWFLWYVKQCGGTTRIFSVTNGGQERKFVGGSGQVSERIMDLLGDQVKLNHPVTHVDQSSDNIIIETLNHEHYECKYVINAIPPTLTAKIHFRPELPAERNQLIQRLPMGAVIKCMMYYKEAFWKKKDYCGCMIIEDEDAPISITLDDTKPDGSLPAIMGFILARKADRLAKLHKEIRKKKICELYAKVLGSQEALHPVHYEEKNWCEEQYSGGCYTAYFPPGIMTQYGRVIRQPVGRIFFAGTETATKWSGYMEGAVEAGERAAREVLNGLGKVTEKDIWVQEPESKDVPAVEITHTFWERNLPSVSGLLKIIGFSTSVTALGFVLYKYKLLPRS
Assay Endpoint: inhibition at 10 µM (%)

>>> df
                                    molecule  measurement_units  recorded_number
 0  CCN(CC)CCCCC1OC(=O)c2cc(OC)c(OC)cc21 (configuration not stated)                  %             2.45
 1  CCN(CCC/C=C1\OC(=O)c2cc(OC)c(OC)cc21)Cc1ccccc1N(C)C                  %             29.1
 2  CCN(CCCCCCC1OC(=O)c2cc(OC)c(OC)cc21)Cc1ccccc1N(C)C (configuration not stated)                  %             14.3
 3  CCN(CCCCC1OC(=O)c2cc(OC)c(OC)cc21)Cc1ccccc1 (configuration not stated)                  %              7.1
 4  COc1ccccc1CN(C)CCC/C=C1/OC(=O)c2cc(OC)c(OC)cc21                  %              4.9
 5  CCN(CCCCC1OC(=O)c2cc(OC)c(OC)cc21)Cc1ccccc1N(C)C (configuration not stated)                  %             17.8
 6  CCN(CCCCC1OC(=O)c2cc(OC)c(OC)cc21)Cc1ccccc1OC (configuration not stated)                  %             27.8
 7  CCN(CCC/C=C1/OC(=O)c2cc(OC)c(OC)cc21)Cc1ccccc1OC                  %             27.1
 8  CCN(CCC/C=C1/OC(=O)c2cc(OC)c(OC)cc21)Cc1ccccc1                  %             12.6
 9  COc1ccccc1CN(C)CCCCC1OC(=O)c2cc(OC)c(OC)cc21 (configuration not stated)                  %             0.25
10  CCN(CCCCC/C=C1/OC(=O)c2cc(OC)c(OC)cc21)Cc1ccccc1N(C)C                  %               28
11  CCN(CCC/C=C1/OC(=O)c2cc(OC)c(OC)cc21)Cc1ccccc1N(C)C                  %               30
12  CCN(CCC/C=C1\OC(=O)c2cc(OC)c(OC)cc21)Cc1ccccc1OC                  %             26.7
13  CCN(CCC/C=C1/OC(=O)c2cc(OC)c(OC)cc21)Cc1ccc(N(C)C)cc1                  %             12.7
14  COc1cc2c(cc1OC)/C(=C\CCCN(C)Cc1ccccc1)OC2=O                  %             17.9
15  CCN(CCC/C=C1\OC(=O)c2cc(OC)c(OC)cc21)Cc1ccc(N(C)C)cc1                  %             12.9
16  COc1cc2c(cc1OC)C(CCCCCCN(C)Cc1ccccc1)OC2=O (configuration not stated)                  %             7.88

The values you see were collected from ChEMBL document CHEMBL4616631.
